All figures here come from PubChem BioAssay AID624176.

- target.of.assay: Aminopeptidase N (Plasmodium falciparum (isolate 3D7)) (UniProt O96935)
- Sequence (O96935 whole entry, looked up): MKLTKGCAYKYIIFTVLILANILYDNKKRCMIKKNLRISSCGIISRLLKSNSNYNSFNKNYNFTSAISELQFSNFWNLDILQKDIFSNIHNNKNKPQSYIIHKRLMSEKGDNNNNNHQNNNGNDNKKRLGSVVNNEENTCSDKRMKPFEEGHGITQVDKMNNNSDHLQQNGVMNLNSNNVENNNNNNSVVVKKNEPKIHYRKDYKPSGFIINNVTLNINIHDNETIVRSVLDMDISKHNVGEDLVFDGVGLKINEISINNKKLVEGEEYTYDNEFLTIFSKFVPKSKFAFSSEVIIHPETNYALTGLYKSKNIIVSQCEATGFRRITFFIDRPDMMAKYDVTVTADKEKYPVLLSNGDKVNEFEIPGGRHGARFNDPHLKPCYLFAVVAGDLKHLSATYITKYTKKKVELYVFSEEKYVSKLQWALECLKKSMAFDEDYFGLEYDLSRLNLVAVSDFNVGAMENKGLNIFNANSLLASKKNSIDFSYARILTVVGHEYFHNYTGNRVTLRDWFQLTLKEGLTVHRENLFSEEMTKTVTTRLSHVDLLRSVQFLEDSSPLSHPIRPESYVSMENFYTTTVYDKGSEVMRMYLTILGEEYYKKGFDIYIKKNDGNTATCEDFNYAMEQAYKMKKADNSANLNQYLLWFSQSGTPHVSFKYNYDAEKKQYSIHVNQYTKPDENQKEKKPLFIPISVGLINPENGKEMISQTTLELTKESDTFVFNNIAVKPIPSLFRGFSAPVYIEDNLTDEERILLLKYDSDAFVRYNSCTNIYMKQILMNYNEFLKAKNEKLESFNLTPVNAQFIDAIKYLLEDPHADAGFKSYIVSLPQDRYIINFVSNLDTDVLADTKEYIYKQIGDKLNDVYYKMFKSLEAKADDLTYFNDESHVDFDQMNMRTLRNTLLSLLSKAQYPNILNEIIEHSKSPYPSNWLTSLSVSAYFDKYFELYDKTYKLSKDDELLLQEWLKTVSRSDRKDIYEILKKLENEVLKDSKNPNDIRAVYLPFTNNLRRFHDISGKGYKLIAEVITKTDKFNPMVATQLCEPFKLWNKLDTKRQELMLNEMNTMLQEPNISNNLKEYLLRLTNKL
- test.description: PfM1AAP inhibitors, counter-screen enzyme, dose response, counter-screen for PfM18AAP inhibitor project, biochemical, QFRET fluorogenic substrate, set 3 (AID 624176)
- setup.conditions: recombinant PfM1AAP, H-Leu-NHMec fluorogenic cleavage
pIC50: −log10 of the molar value.
attribute.measured: pIC50

INSERT INTO results (compound, attribute_measured, reading) VALUES
  ('Oc1cccc(CCNc2ccnc3ccccc23)c1O', 'pIC50', 4.25);

(A) Oc1ccc(C2CCN(c3ccnc4ccccc34)CC2)cc1O
(B) Oc1ccc(C2CCN(c3ccnc4ccccc34)C2)cc1O (stereo not given)
// which entry has the larger pIC50 value, A or B ? Please reply using the label of the selected record.
B

(P) CN(CCc1ccc(O)c(O)c1)c1ncnc2ccccc12
(Q) Cc1cc(N(C)CCc2ccc(O)c(O)c2)c2ccccc2n1
Just tell me: smaller pIC50 value, P or Q ? Please reply using the label of the selected record.
Q

---

- target.of.assay: Aminopeptidase N (Plasmodium falciparum (isolate 3D7))
- test.description: PfM1AAP inhibitors, counter-screen enzyme, dose response, counter-screen for PfM18AAP inhibitor project, biochemical, QFRET fluorogenic substrate, set 3 (AID 624176)
- setup.conditions: recombinant PfM1AAP, H-Leu-NHMec fluorogenic cleavage
pIC50: −log10 of the molar value.
attribute.measured: pIC50

INSERT INTO results (query_smiles, attribute_measured, reading) VALUES
  ('CCN(CCc1ccc(O)c(O)c1)c1c2ccccc2nc2ccccc12', 'pIC50', 4.00),
  ('Cc1cccc2c(NCCc3ccc(O)c(O)c3)ccnc12', 'pIC50', 3.98),
  ('CN(CCc1ccc(O)c(O)c1)c1ccnc2c(F)cccc12', 'pIC50', 4.08),
  ('CN(CCc1ccc(O)c(O)c1)c1ccnc2cc(Cl)ccc12', 'pIC50', 4.12),
  ('Oc1ccc(CCNc2ccnc3cc(Cl)ccc23)cc1O', 'pIC50', 4.13);
